System: Human immunodeficiency virus 1
Assay: Antiviral activity against HIV1 3B assessed as inhibition of virus-induced cytopathogenicity
Format: functional, organism-based
Details: Human immunodeficiency virus 1, 3B
measurement kind: pEC50
Answers are plain numbers, as −log10 of the molar value.

Task: # value lookup — system Human immunodeficiency virus 1, readout pEC50, item CC(C)C[C@H](NC(=N)N)C(=O)Nc1ccc2c(c1)cc(C(=O)NCCc1c[nH]c3ccccc13)n2CCCNC(=N)N
Output: 5.27

---

Target: C-X-C chemokine receptor type 4 (Homo sapiens, UniProt P61073)
Sequence (P61073 whole entry): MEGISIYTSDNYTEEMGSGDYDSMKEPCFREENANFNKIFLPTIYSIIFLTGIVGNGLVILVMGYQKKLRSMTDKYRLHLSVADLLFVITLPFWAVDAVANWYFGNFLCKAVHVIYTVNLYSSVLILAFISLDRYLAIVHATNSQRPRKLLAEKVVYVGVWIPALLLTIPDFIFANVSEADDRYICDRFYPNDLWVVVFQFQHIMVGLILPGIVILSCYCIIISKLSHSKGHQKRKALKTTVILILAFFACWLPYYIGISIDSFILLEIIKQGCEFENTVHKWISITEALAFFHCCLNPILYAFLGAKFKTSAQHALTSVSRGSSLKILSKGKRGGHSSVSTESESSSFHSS
Experiment: Displacement of [125I]SDF1 from human CXCR4 expressed in CHO cells
Type: cell-based
Exercise: state measured pIC50 for each of the compounds provided.
Numbers only, as −log10 of the molar value.

Answered cases to consult:
smiles repr: N=C(N)NCCCn1c(C(=O)NCCc2c[nH]c3ccccc23)cc2cc(NC(=O)[C@@H](Cc3ccccc3)NC(=N)N)ccc21
measurement kind: pIC50
numeric result: 5.43
--
smiles repr: NC(N)=NCCCn1c(C(=O)Nc2cccc3ccccc23)cc2cc(NC(=O)Cc3ccc(O)cc3)ccc21
measurement kind: pIC50
numeric result: 5.32
--
smiles repr: N=C(N)NCCCn1c(C(=O)NCCc2c[nH]c3ccccc23)cc2cc(NC(=O)C3CCN(C(=N)N)CC3)ccc21
measurement kind: pIC50
numeric result: 5.52

Give one value of pIC50 per listed compound.
1. CC(C)C[C@@H](NC(=N)N)C(=O)Nc1ccc2c(c1)cc(C(=O)NCCc1c[nH]c3ccccc13)n2CCCNC(=N)N
2. NC(N)=NCCc1cc2cc(NC(=O)CCc3ccc(O)cc3)ccc2n1CCc1ccc2ccccc2c1

Output:
1. 5.66
2. 5.57
